Exercise: for every item that follows, state its recorded normalized growth.
Test: chemical genetic growth profiling, strain panel (AID 1159580);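 also: tested at 20 µM; growth read once vehicle control cultures reached saturation at 30 °C; 1 = growth at the plate median or of vehicle wells; lower values mean less growth of the strain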
Details: S. cerevisiae deletion strains, growth OD, locus YEL037C, strain rad23, stronger effect = lower value
In all, about 5,500 compounds went through this assay and about 2,000 (36%) were called active. About 18% were inconclusive and are not listed. Some of the results follow.
One number for each entry.

# example entries with known answers
Compound: Oc1ccc2c(c1)O[C@H](c1ccc(O)c(O)c1)[C@@H](O)C2
Assay endpoint: normalized growth
Reported: 1.02

Compound: CCCCCCCCCCCCCc1ccco1
Assay endpoint: normalized growth
Reported: 0.983

Compound: c1ccc2c(c1)sc1ccccc12
Assay endpoint: normalized growth
Reported: 0.933

Compound: CCN(CC)C(=O)N1CCN(C)CC1
Assay endpoint: normalized growth
Reported: 0.978

Compound: c1ccc2c(c1)CCCC2C1=NCCN1 (configuration not stated)
Assay endpoint: normalized growth
Reported: 1.03

Could I get normalized growth for every one of these entries?
1. Oc1cc(O)c2c(c1)O[C@H](c1ccc(O)c(O)c1)[C@H](O)C2
2. COc1ccc([C@H]2Oc3c(I)c(OC)cc(OC)c3C[C@@H]2O)cc1OC
3. Oc1cc(O)c2c(c1)O[C@H](c1cc(O)c(O)c(O)c1)[C@H](O)C2
4. C=CC[C@]1(O)CCC2C3CCC4=CC(=O)CCC4=C3C=C[C@@]21C (some centres not stated)
5. O=C1CCC(N2C(=O)c3ccccc3C2=O)C(=O)N1 (configuration not stated)
6. CC#CC1(O)CCC2C3CCC4=CC(=O)CCC4=C3C(c3ccc(N(C)C)cc3)CC21C (configuration not stated)

RESULT:
1.02
1.01
1.01
0.995
1.02
0.99
